Consider the following compounds and their measured cell viability readings.
tested on: SEM cells; assay: cell viability relative to DMSO control; higher = less cytotoxic; conditions: HPLM + 10% dialyzed FBS; 48 h; 0.19 µM

compound	cell viability, %
CN(C)C(=O)C(CCN1CCC(O)(c2ccc(Cl)cc2)CC1)(c1ccccc1)c1ccccc1	121
OCc1ccc(-c2ccc(-c3ccc(CO)s3)o2)s1	103
C=CCc1ccc(O)c(-c2ccc(O)c(CC=C)c2)c1	112
C#CCN[C@@H]1CCc2ccccc21.CS(=O)(=O)O	108
C[C@H]1O[C@H](C[C@H](O)[C@@H]1O)O[C@H]2[C@@H](O)C[C@@H](O[C@@H]2C)O[C@H]3[C@@H](O)C[C@@H](O[C@@H]3C)O[C@H]4CC[C@@]5(C)[C@H](CC[C@@H]6[C@@H]5C[C@@H](O)[C@]7(C)[C@H](CC[C@]67O)C/8=C/C(=O)OC8)C4	15.2
CNC(=O)Nc1ccc(-c2nc(N3CC4CCC(C3)O4)c3cnn(C4CCC5(CC4)OCCO5)c3n2)cc1	53.6
OC(CN1CCN(c2cccc(Cl)c2)CC1)C(c1ccccc1)c1ccccc1 (stereo not drawn)	110
O=C(OCC#CCSc1nnc(-c2cccc3ccccc23)o1)c1cc2ccccc2s1	132
